Entries and their TGI values follow.
tested on: OVCAR-3 ovarian; assay: NCI tumour cell line growth inhibition, 48 h
Record the value in µM, omitting the unit from your answer.

Field: example entries. Status: answers known.
{"chemical_string": "COc1cc(NC(=O)NCc2ccco2)ccc1-c1ccc(NC(=O)NCc2ccco2)cc1OC", "TGI (µM)": 16.2}
{"chemical_string": "CC(C)C[C@H](NC(=O)CCn1ccc2ncccc2c1=O)B(O)O", "TGI (µM)": 20.6}

Query: Identify measured TGI corresponding to `COc1cc(F)c(/C=C/c2cc(/C=C/c3cc(OC)c(OC)cc3F)n(-c3cc(F)cc(F)c3)n2)cc1OC`
Response: 6.37

* * *

Entries and their TGI values follow.
test system: KM12 colon; assay: NCI tumour cell line growth inhibition, 48 h

Field: example entries. Status: answers known.
{"compound": "O=c1cccccc1[O-].O=c1cccccc1[O-].O=c1cccccc1[O-].[Ce+3]", "obs_value": "> 100 µM"}
{"compound": "COC(=O)[C@]12CC[C@@H](C)[C@H](C)[C@@H]1C1=CC[C@@H]3[C@@]4(C)C(C=O)=C[C@@](C)(COS(C)(=O)=O)C4[C@H](O)C[C@@]3(C)[C@]1(C)CC2 (stereo not given in full)", "obs_value": "3.96 µM"}
{"compound": "COc1c2ccsc2c(OC)c2ccsc12", "obs_value": "> 100 µM"}
{"compound": "C=C(CNC(=O)c1ccccc1)c1ccc(C(=O)Nc2ccccc2N)cc1", "obs_value": "> 100 µM"}
{"compound": "Cc1ccc2nc(-c3ccc(N)c4ccccc34)[nH]c2c1", "obs_value": "13.5 µM"}
{"compound": "O=C(COc1cccc(/C=C2\\Oc3ccc4ccccc4c3C2=O)c1)c1ccc(Cl)cc1", "obs_value": "> 100 µM"}

Query: Identify measured TGI corresponding to CN(C)CC1CCC/C(=C\c2ccc(OC(=O)/C=C/c3ccc(Cl)c(Cl)c3)cc2)C1=O (stereo not given)
Response: 3.61 µM

Query: Identify measured TGI corresponding to `CCOC(=O)C1=C(Nc2ccc(Br)cc2)OC/C1=N\NC(=O)c1ccccc1O`
Response: > 100 µM

Query: Identify measured TGI corresponding to COC(=O)c1ccccc1C1=C([N+](=O)[O-])C(c2ccccc2)C(C#N)=C(N)O1 (stereo not given)
Response: > 100 µM

Query: Identify measured TGI corresponding to `COc1ccc2c(c1)c1nn(CCN3CCCCC3)c3ccc4c(=O)n(CCN(C)C)c(=O)n2c4c13`
Response: 0.0801 µM

Query: Identify measured TGI corresponding to COC12CCC(C(C(=O)c3ccccc3)=C1C(=O)c1ccccc1)C(O)C2 (stereo not given)
Response: > 100 µM

Query: Identify measured TGI corresponding to CCOC(=O)CCC(NC(=O)Cc1ccc(Oc2nc3ccccc3nc2-c2ccccc2)cc1)C(=O)OCC (stereo not given)
Response: > 100 µM

Query: Identify measured TGI corresponding to `COc1ccc(-c2cc(-c3cccc(NS(C)(=O)=O)c3)nc(N)c2C#N)cc1`
Response: 9.12 µM

Query: Identify measured TGI corresponding to `CS(=O)(=O)N(CCC#N)c1ccc(C=O)cc1`
Response: > 100 µM

* * *

test system: TK-10 renal; assay: NCI tumour cell line growth inhibition, 48 h
value_type: TGI

{"molecule": "O=C1C(=O)N(c2nccs2)C(=O)C(=O)C1c1nc2ccccc2s1", "TGI": "> 100 µM"}

Query: Identify measured TGI corresponding to `COc1cc(CCN(C)C)cc(OC)c1OC`
Response: > 100 µM

Query: Identify measured TGI corresponding to O=[N+]([O-])c1ccc(N2N=C(c3ccc4ccccc4c3O)CC2c2ccc(Cl)cc2)c([N+](=O)[O-])c1 (stereo unspecified)
Response: > 100 µM

Query: Identify measured TGI corresponding to COC(=O)C1=CON2C3CC4CC(C3)CC(C4)C12C (stereo unspecified)
Response: > 100 µM

Query: Identify measured TGI corresponding to `COc1c(C)c(C/C=C(\C)CC/C=C(\C)CC/C=C(\C)CCC=C(C)C)c(OC)c2ccccc12`
Response: > 100 µM
